assay: enhancers of STAT3 transcriptional signaling – U3A cells, luciferase, luminescence, MLSCN library, primary screen (AID 871); conditions: IL-6 STAT3-luciferase reporter, at 5.6 µM, 100% = signal with IL-6 EC80 alone;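 note: 0% = background luminescence of wells with medium and substrate only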
Out of some 190,000 compounds screened, about 1,800 (0.95%) were called active.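 Rule for the calls: active = activation above the screen-wide mean of compound activation plus 3 SD (cut at about 130% in these data); inactive = the rest.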 The full list was thinned out, with actives kept by preference.
Outcome (select one): true (active), false (inactive)

Solved entries (count: 3):
CC(NC(=O)COC(=O)C1CCN(S(=O)(=O)c2ccccc2C(F)(F)F)CC1)c1ccccc1 (stereo unspecified); false
Cc1ccc(-c2cc(C(=O)Nc3nn[nH]n3)c3ccccc3n2)c(C)c1; true
Cc1ccc(OCc2n[nH]c(=S)n2-c2ccccc2)cc1; false

Hey, what did the test say about Cc1cccnc1NC(=O)CSc1nnc(COc2ccc(C(C)C)cc2)n1C ?
false

Entry Cc1ccc(NC(=O)c2cc(-c3ccc(C)o3)nc3ccccc23)nc1 : call = ?
false

Which outcome was entered for the compound COc1ccccc1-c1nnc(SCC(=O)Nc2cc(C)on2)o1 in this test?
false

* * *

test: enhancers of STAT3 transcriptional signaling – U3A cells, luciferase, luminescence, MLSCN library, primary screen (AID 871); conditions: IL-6 STAT3-luciferase reporter, at 5.6 µM, active compounds read high, 100% = signal with IL-6 EC80 alone;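 note: 0% = background luminescence of wells with medium and substrate only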
Among all 190,000 compounds or so, about 1,800 (0.95%) were called active. This is one part of a sample in which actives are shown more often than they occur.
assay.readout: activation (% of control) (%)
Give the value in % but do not write % after it.

COc1cc2c(cc1OC)CN(C(=O)c1cc(=O)c3ccccc3o1)CC2; 92.7
NC(=O)Cn1nc([N+](=O)[O-])nc1Oc1ccc(Br)cc1; 93.7
COc1ccc(CN2CCN(Cc3cn(C)nc3-c3ccccc3)CC2CCO)c(C)c1C (stereo not given); 105
COc1cc2c(cc1OC)CN(C(=O)c1ccc(S(=O)(=O)N3CCCCCC3)cc1)CC2; 92.7

Would you kindly look at the next entry?
Requested field: activation (% of control). Item: O=C(COc1ccccc1Cl)Nc1ccc(C(=O)c2ccc(C(=O)O)cc2)cc1
85.3

* * *

assay: enhancers of STAT3 transcriptional signaling – U3A cells, luciferase, luminescence, MLSCN library, primary screen (AID 871); conditions: IL-6 STAT3-luciferase reporter, at 5.6 µM, active compounds read high, 100% = signal with IL-6 EC80 alone;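 note: 0% = background luminescence of wells with medium and substrate only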
Among all 190,000 compounds or so, about 1,800 (0.95%) were called active. For the sample, actives were picked, then their nearest neighbours and some compounds at random.
assay.readout: activation (% of control) (%)
Numeric only. Scale: %

As a guide, the following entries are already answered.
CCN(CC)CCN(C(=O)c1ccc(N2C(=O)CCC2=O)cc1)c1nc2cc3c(cc2s1)OCO3; 107
NC(=O)c1ccc(NC(=O)COC(=O)C(Cc2ccccc2)NC(=O)c2ccccc2)cc1 (stereo unspecified); 92.8
C/C(=N/NC(=O)c1ccc(NC(=O)c2ccc(F)cc2)cc1)c1ccccc1; 85.3
CCCC1OC23CCCCC2C(C#N)(C#N)C1(C#N)C(=N)O3 (stereo unspecified); 104
COC(=O)c1ccc(NC(=S)NN2CCOCC2)cc1; 109
Cc1ccccc1CC1(CO)CCCN(Cc2ccc3c(c2)OCCO3)C1 (stereo unspecified); 93.5
CCCCCCCC1(C)NC(=O)N(CC(=O)Nc2cc(C)on2)C1=O (stereo unspecified); 93.7
COC(=O)C(C)N=Cc1ccccc1 (stereo unspecified); 102
O=C(N/N=C1\CCSC1)c1cc(Cl)ccc1O; 100
Cc1cccc(NC(=S)Nc2ccc(Cl)c(Cl)c2)c1; 92.4

For the next question, use this compound.
activation (% of control) for COc1ccccc1C(=O)NNC(=O)c1ccc(NC(=O)c2ccccc2)cc1 ?
134

* * *

assay: enhancers of STAT3 transcriptional signaling – U3A cells, luciferase, luminescence, MLSCN library, primary screen (AID 871); details: IL-6 STAT3-luciferase reporter, at 5.6 µM, active compounds read high, 100% = signal with IL-6 EC80 alone;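 note: 0% = background luminescence of wells with medium and substrate only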
Hit rate of the full screen: of about 190,000 compounds, about 1,800 (0.95%) were called active. This is one part of a sample in which actives are shown more often than they occur.
Measured activation (% of control), listed per entry for reference.
Supply the numeric figure in %, leaving out any unit text.

Here is how some compounds turned out for activation (% of control).
COC(=O)CC(=O)N1CCN(c2ccc(Cl)c(Cl)c2)CC1; 87.7
O=C(NCc1cccs1)C1CCN(S(=O)(=O)c2ccc(Cl)cc2)CC1; 104

Look up activation (% of control) for this compound: C/C(=N\NC(=O)CSc1nc2ccccc2c(=O)n1-c1ccccc1C)c1cccs1
105

Query (compound): c1ccc(-c2cn3c(n2)CCc2ccc4cccnc4c2-3)cc1 ; field requested: activation (% of control)
157

Reported activation (% of control) for CC1CCc2sc(C(=O)N/N=C/C3CCCCC3)cc2C1 (centres undefined) : what is it?
103

Please give the measured activation (% of control) for this compound: Cc1csc(CN(C)C(=O)CC2C(=O)NCCN2CC(C)(C)C)n1 (centres undefined)
96.6

Look up activation (% of control): CCn1cc(C(=O)NCCCN2CCCCCC2)c(=O)c2cc(S(=O)(=O)N3CCc4ccccc4C3)ccc21
108

* * *

experiment: enhancers of STAT3 transcriptional signaling – U3A cells, luciferase, luminescence, MLSCN library, primary screen (AID 871); conditions: IL-6 STAT3-luciferase reporter, at 5.6 µM, active compounds read high, 100% = signal with IL-6 EC80 alone;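 note: 0% = background luminescence of wells with medium and substrate only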
In all, about 190,000 compounds went through this assay and about 1,800 (0.95%) were called active. This excerpt belongs to a sample that is enriched for actives.
assay.readout: activation (% of control) (%)
Numbers only; they are read as %.

Recorded activation (% of control), per entry:
COC(=O)Cc1c(O)ccn(Cc2cccc(C(F)(F)F)c2)c1=O; 99.8
O=C(COC(=O)c1ccncc1)c1ccccc1; 97.1
CSc1ncnc2sc(C)c(C)c12; 91.1
Cc1cc(O)cc(O)c1C(=O)Cc1cnn(-c2ccccc2)c1; 92.8
c1ccc(C2c3[nH]c4ccccc4c3CCN2Cc2cccn2-c2cccnc2)nc1 (stereo unspecified); 94
COc1ccc(C(=O)NC(Cc2ccc(OC(=O)c3ccc(OC)cc3)cc2)C(=O)O)cc1 (stereo unspecified); 100
CN1CCN(c2ccc(S(=O)(=O)Nc3ccccc3)cc2[N+](=O)[O-])CC1; 79.1
Cc1sc2ncnc(Sc3nc4ccccc4s3)c2c1C; 135

# query: activation (% of control) of entry O=C(CSc1nc2ccccc2[nH]1)N/N=C/C=C\c1ccccc1[N+](=O)[O-]
96.6

Endpoint output: activation (% of control) of Cn1c(=NC(=O)C2CC2)sc2cc(F)cc(F)c21 . Value?
135

For COC(=O)c1c(-c2cccs2)csc1NC(=O)CSc1ncnc2sc(C)c(C)c12 , what is its reported activation (% of control)?
93.1

* * *

The entries below come with measured activation (% of control) values attached.
assay: enhancers of STAT3 transcriptional signaling – U3A cells, luciferase, luminescence, MLSCN library, primary screen (AID 871); settings: IL-6 STAT3-luciferase reporter, at 5.6 µM, active compounds read high, 100% = signal with IL-6 EC80 alone;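 note: 0% = background luminescence of wells with medium and substrate only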
Out of some 190,000 compounds screened, about 1,800 (0.95%) were called active. What follows is part of a selection rich in actives, with near analogues and random picks from the rest.
Please respond with the number in % and leave the unit unwritten.

Below are worked cases with known answers.
COc1ccc(-c2cc(C(=O)NCc3ccco3)no2)cc1OC; 101
COc1ccccc1N1CCN(C(=O)c2cc3c(-c4ccc(Cl)cc4)nn(C)c3s2)CC1; 146
Cc1ccn(-c2cccc(-n3ccc(C)n3)n2)n1; 93.6
Cc1ccc(N=Nc2c(C)[nH]n(-c3ccccc3)c2=O)cc1; 147
O=C(c1ccc(-c2ccccc2)cc1)C1CCCN(C(=O)c2cncs2)C1 (centres undefined); 98.2

I'd like to know its activation (% of control). The molecule in question is Cc1nn(CC2CC2)c(=O)n1N(C)c1ncc(C(F)(F)F)cc1Cl
99.4

Recorded activation (% of control) for CCC1CCCCN1C(=S)Nc1ccc(SC(F)F)cc1 (centres undefined) , please?
94.3

For COc1ccccc1N1CCN(C(=O)c2cc(-c3ccc(Cl)c(Cl)c3)on2)CC1 , what is its reported activation (% of control)?
91.7

Could you share which activation (% of control) value was measured for CN1C(=O)/C(=C\c2cc(Br)cs2)c2ccccc21 ?
178

Entry CCCN(CCC)c1c([N+](=O)[O-])c(=O)oc2ccccc12 has what activation (% of control)?
96.6

Recorded activation (% of control) of COc1ccccc1CCNC(=O)CSc1nnc2ccc(-c3cccnc3)nn12 , please.
101

Quick check: activation (% of control) of COc1ccc2c(Cl)c(C(=O)NCc3ccco3)sc2c1 ?
95.9

Would you kindly share the measured activation (% of control) for Cc1cccc(N=Nc2c(C)[nH]n(-c3ccccc3)c2=O)c1 ?
122

I'd like to know its activation (% of control). The molecule in question is O=S1(=O)CC/C(=N\Nc2ccc(F)cc2)c2ccsc21
80.3

Look up activation (% of control): COCC(=O)Nc1cc(C(=O)OC)cc(C(=O)OC)c1
97.7
